Catalogue of Anti-CD28 Fab signal values
molecular target: anti-CD28 Fab (SEQ ID NOs: 202, 203); experiment: phage ELISA, Fab on plate;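 further: ELISA of crude clonal phage supernatants on the plate, wells preloaded with CD28 antigen or only blocking buffer, captured phage read out via HRP-linked anti-M13 antibody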
Sequence (VH, as listed by the source, chain 1 of 2): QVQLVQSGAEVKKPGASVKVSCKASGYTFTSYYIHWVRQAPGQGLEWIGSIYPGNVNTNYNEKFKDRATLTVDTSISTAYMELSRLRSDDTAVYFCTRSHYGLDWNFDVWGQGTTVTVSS
Sequence (VL, as listed by the source, chain 2 of 2): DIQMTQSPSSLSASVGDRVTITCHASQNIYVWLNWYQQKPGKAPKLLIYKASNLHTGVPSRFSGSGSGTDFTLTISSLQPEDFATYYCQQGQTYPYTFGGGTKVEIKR
The reply should be a number, written without any unit.

Worked cases, answers included:
- binder: "TCSAGASWGWPWCL [Phage-1185]"
  value measured: 1.22
- binder: "PCAAGAQWSWPMCL [Phage-1209]"
  value measured: 1.07
- binder: "TCTAGFSYKWPTCL [Phage-1174]"
  value measured: 1.28
- binder: "LCDQFFHYNWPACL [Phage-1215]"
  value measured: 1.04

Next:
Consider the binder TCSAGATYTWPSCF [Phage-1125] and give its measured Anti-CD28 Fab signal.
1.42

All values here come from patent US20260274955A1.
